Data credit: ChEMBL document CHEMBL3526035

protocol_notes: Tmax in healthy human at 150 mg, po administered as single dose by HPLC-tandem mass spectrometry under fed conditions
Assay type: ADME, organism-based
cond: in vivo
What Tmax was measured for each of the following?
Give bare numbers, in h.

compound="CCC(CC)O[C@@H]1C=C(C(=O)O)C[C@H](N)[C@H]1NC(C)=O [OSELTAMIVIR CARBOXYLATE]" reading=5.42

Now for a further compound.
**Q:** May I ask what Tmax has been recorded for CCOC(=O)C1=C[C@@H](OC(CC)CC)[C@H](NC(C)=O)[C@@H](N)C1 ?
**A:** 2.06

* * *

protocol_notes: AUC(0 to infinity) in adult fasted Sprague-Dawley rat at 30 mg/kg, po administered as water solution by HPLC-tandem mass spectrometry
Assay type: ADME, organism-based
Parameters: time infinity, dose 30 mg/kg, route oral
cond: plasma
What AUC(0-inf) was measured for each of the following?
Give bare numbers, in ng·h/mL.

compound="CCC(CC)O[C@@H]1C=C(C(=O)O)C[C@H](N)[C@H]1NC(C)=O [OSELTAMIVIR CARBOXYLATE]" assay_readout=AUC(0-inf) reading=6140

Now for a further compound.
**Q:** May I ask what AUC(0-inf) has been recorded for CCOC(=O)C1=C[C@@H](OC(CC)CC)[C@H](NC(C)=O)[C@@H](N)C1 ?
**A:** 2710
